Subject of test: GRIP2_7, Q9C0E4
Sequence (Q9C0E4 934-1023): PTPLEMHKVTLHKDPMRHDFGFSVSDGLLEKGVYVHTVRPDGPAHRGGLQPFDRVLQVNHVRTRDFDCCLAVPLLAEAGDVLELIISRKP
Protocol details: holdup assay
Design: key: below the threshold = too weak to quantify, mostly under pKd 3.1 to 4
Conditions: plain residues with an end cap or a label only (N-terminal biotin on a linker: ado-ado)
Metric: pKd

SGDGKTSVWI [GJC1, P36383] | 4.37
FVFESRKEIL [TBPL1, P62380] | below the threshold
ADEMICITTL [CACNA1D, Q01668] | 3.62
KPDKQEEFYA [SDC3, O75056] | below the threshold
SQDPKKPSRV [CBY2, Q8NA61] | below the threshold
VKQYADVEGF [HNRNPK, P61978;P61978-2] | below the threshold
TNSKQGETTV [FZD1, Q9UP38] | below the threshold

Lab note: next binder to report on.
Q: What value of pKd has been reported for the following binder? WAKEKQHTRL [SLC17A1, Q14916]
Result: below the threshold
